Every entry's value here was drawn from ChEMBL document CHEMBL4052625.

target: UniProtKB P27338; assay: Inhibition of human liver mitochondria MAO-B using 1-methyl-4-phenyl-1,2,3,6-tetrahydropyridine as substrate after 15 mins by spectrophotometric analysis
endpoint label: pKi
Give bare numbers, as −log10 of the molar value.

Please indicate pKi recorded for `CC1=C(C)C(=O)c2cc(C)ccc2C1=O`
5.22

* * *

Molecular target: Amine oxidase [flavin-containing] B (Homo sapiens)
Sequence (P27338 whole entry): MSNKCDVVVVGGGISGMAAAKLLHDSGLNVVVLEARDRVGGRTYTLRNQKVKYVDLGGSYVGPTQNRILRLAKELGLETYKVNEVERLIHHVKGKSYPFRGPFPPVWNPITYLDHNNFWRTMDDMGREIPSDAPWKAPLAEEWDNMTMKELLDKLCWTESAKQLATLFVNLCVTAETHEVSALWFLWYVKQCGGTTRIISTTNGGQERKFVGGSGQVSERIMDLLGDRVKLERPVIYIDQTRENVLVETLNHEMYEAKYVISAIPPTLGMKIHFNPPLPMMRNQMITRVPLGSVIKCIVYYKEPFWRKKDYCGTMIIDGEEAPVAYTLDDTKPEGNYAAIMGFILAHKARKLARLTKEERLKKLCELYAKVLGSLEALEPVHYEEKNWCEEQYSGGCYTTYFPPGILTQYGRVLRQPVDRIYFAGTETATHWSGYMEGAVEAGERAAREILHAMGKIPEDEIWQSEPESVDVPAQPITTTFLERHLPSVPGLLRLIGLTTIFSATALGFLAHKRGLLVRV
Assay: Non-competitive inhibition of human brain mitochondria MAO-B using kynuramine as substrate by Lineweaver-Burk analysis
endpoint label: pKi
One number for each entry, as −log10 of the molar value.

Fill in pKi for record O=C1C=CC(=O)C=C1 [BENZOQUINONE]
4.69

* * *

organism: Homo sapiens; experiment: Selectivity index, ratio of IC50 for recombinant human MAO-B to IC50 for recombinant human MAO-A expressed in baculovirus infected BTI insect cell microsomes
# note: boundary value 2 maps to false (0); Ratio IC50 below it maps to true (1)

Some solved entries appear below for comparison.
O=C1C=CC(=O)C(C2CCCC2)=C1 ... false (0)
O=C1C=CC(=O)C(OCc2ccccc2)=C1 ... true (1)
O=C1C=CC(=O)C(Cc2ccccc2)=C1 ... false (0)
O=C1C=CC(=O)C=C1 [BENZOQUINONE] ... false (0)

Attention now turns to another entry.
Dear colleague, could you confirm whether Ratio IC50 of `O=C1C=CC(=O)C(c2ccccc2)=C1` falls below 2? Thanks.
true (1)

* * *

molecular target: Amine oxidase [flavin-containing] A (Homo sapiens); test: Inhibition of human gastrointestinal mitochondria MAO-A using 1-methyl-4-(1-methylpyrrol-2-yl)-1,2,3,6-tetrahydropyridine as substrate after 30 mins by spectrophotometric analysis
endpoint label: Ki (µM)
Numbers only, in µM.

For `CC1=C(C)C(=O)c2cc(C)ccc2C1=O` , write its Ki.
3
